Reference source for all entries: patent US11884675B2

molecular target: hTREM2 (Homo sapiens); experiment: TREM2 activity by cellular Syk phosphorylation (AlphaScreen/AlphaLISA) in TREM2/DAP12-HEK cells, used for Examples 1-305; type: cell-based; parameters: expressed in transfected cells; conditions: HEK293 Cells
recordedEndpoint: hTREM2 Emax

Field: example entries. Status: answers known.
Cc1cc([C@H]2CN(c3nc(C45CC(C(F)(F)F)(C4)C5)c4ncc(C)nc4n3)CCO2)ccn1; ++ (Emax>100 and ≤150)
Cc1ccc2c(n1)nc(N1CCO[C@@H](c3cnn(C)c3)C1)nc2[C@H]1C[C@@H](C(F)(F)F)C1; + (Emax>45 and ≤100)
Cc1nc2cc([C@@H]3CCO[C@H](c4cnn(C)c4)C3)nc(-c3ccc(Cl)cc3F)c2nc1C (single isomer, unassigned); ++++ (Emax>250)
CCn1cc([C@H]2CN(c3cc4nc(C)cnc4c(-c4ccc(Cl)cc4F)n3)CCO2)cn1; ++++ (Emax>250)
Cc1nc2nc(N3CCO[C@@H](c4cnn(C)c4)C3)nc(C3CCCCC3)c2nc1C; + (Emax>45 and ≤100)

[Q] Assign hTREM2 Emax to the following record: Cc1cc([C@H]2CN(c3cc4nc(C)cnc4c(-c4ccc(Cl)cc4F)n3)CCO2)ccn1
[A] +++ (Emax>150 and ≤250)

[Q] Assign hTREM2 Emax to the following record: Cc1ccc2c(n1)nc(N1CCO[C@@H](c3cnn(C)c3)C1)nc2[C@H]1C[C@H](C(F)(F)F)C1
[A] + (Emax>45 and ≤100)

[Q] Assign hTREM2 Emax to the following record: Cc1nc2cc([C@@H]3CCO[C@H](c4cnn(C)c4)C3)nc(-c3ccc(F)cc3F)c2nc1C
[A] ++ (Emax>100 and ≤150)

* * *

target: hTREM2 (Homo sapiens, UniProt Q9NZC2); assay: TREM2 activity by cellular Syk phosphorylation (AlphaScreen/AlphaLISA) in TREM2/DAP12-HEK cells, used for Examples 1-305; assay type: cell-based; design: expressed in transfected cells; conditions: HEK293 Cells
Sequence (Q9NZC2 19-230): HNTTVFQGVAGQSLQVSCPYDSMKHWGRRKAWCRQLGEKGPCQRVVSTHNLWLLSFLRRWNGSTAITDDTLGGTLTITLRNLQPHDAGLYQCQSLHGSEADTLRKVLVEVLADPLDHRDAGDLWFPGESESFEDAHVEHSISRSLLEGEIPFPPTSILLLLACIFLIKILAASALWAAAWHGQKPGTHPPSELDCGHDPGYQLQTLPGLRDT
Sequence (O43914 22-113 partner): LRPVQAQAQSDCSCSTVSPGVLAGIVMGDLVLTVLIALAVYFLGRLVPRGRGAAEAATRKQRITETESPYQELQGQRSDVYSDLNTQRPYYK
pEC50: −log10 of the molar value.
Kindly supply the reported pEC50 values for the records listed here.

[Q] Assign pEC50 to the following record: Cc1nc2nc(N3CCO[C@@H](c4cnn(C)c4)C3)nc(-c3ccc(C(F)(F)F)nc3)c2nc1C
[A] ≥ 7.30

[Q] Assign pEC50 to the following record: Cc1nc2nc([C@@H]3CCO[C@H](c4cnn(C)c4)C3)cc(-c3ccc(F)cc3F)c2nc1C
[A] 5.52 to 6.30

[Q] Assign pEC50 to the following record: Cc1cc2c(nc(N3CCO[C@@H](c4cnn(C5CC5)c4)C3)nc2[C@H]2C[C@H](C(F)(F)F)C2)nc1C
[A] ≥ 7.30

[Q] Assign pEC50 to the following record: Cc1ccc(-c2nc(N3CCO[C@@H](c4cnn(C)c4)C3)nc3nc(C)c(C)nc23)c(F)c1
[A] ≥ 7.30

[Q] Assign pEC50 to the following record: Cc1cc2c(-c3ccc(Cl)cc3F)nc([C@H]3CCO[C@@H](c4cnn(C5CC5)c4)C3)nc2nc1C (single isomer, unassigned)
[A] ≥ 7.30

[Q] Assign pEC50 to the following record: Cc1cnc2c(-c3ccc(Cl)cc3F)nc(N3CCO[C@@H](c4cnn(C5CC5)c4)C3)nc2n1
[A] ≥ 7.30

[Q] Assign pEC50 to the following record: Cc1ncc([C@H]2C[C@@H](c3nc(-c4ccc(Cl)cc4F)c4nc(C)c(C)nc4n3)CCO2)cn1 (single isomer, unassigned)
[A] 6.30 to 7.30

* * *

target: hTREM2 (Homo sapiens, UniProt Q9NZC2); assay: TREM2 agonist potency by Syk phosphorylation (AlphaLisa) in HEK293T-hTREM2 cells, used for Examples 306-429; type: cell-based; set-up: expressed in transfected cells; host or cells: HEK293T (HEK293T-hTREM2 cells); details: HEK293 Cells
pEC50: −log10 of the molar value.
Kindly supply the reported pEC50 values for the records listed here.

[Q] Lab note: record pEC50 of Cc1cc(C2CN(c3cc4nc(C)c(C)nc4c(-c4ccc(F)cc4F)n3)CCO2)ccn1 (centres unmarked) tested on hTREM2 (Homo sapiens, UniProt Q9NZC2).
[A] ≥ 7.30

[Q] Lab note: record pEC50 of Cc1cnc2c(C34CC(C(F)(F)F)(C3)C4)nc(N3C[C@@H](C)O[C@H](c4cnn(C5CC5)c4)C3)nc2n1 tested on hTREM2 (Homo sapiens, UniProt Q9NZC2).
[A] 6.30 to 7.30

[Q] Lab note: record pEC50 of Cc1nc2nc(N3CC(C)OC(c4cnn(C5CC5)c4)C3)nc(-c3ccc(F)cc3F)c2nc1C (centres unmarked) tested on hTREM2 (Homo sapiens, UniProt Q9NZC2).
[A] ≥ 7.30

[Q] Lab note: record pEC50 of Cc1cc(C2CN(c3nc(-c4ccc(Cl)c(F)c4F)c4nc(C)c(C)nc4n3)CCO2)ccn1 (centres unmarked) tested on hTREM2 (Homo sapiens, UniProt Q9NZC2).
[A] ≥ 7.30

[Q] Lab note: record pEC50 of Cc1nc2nc(C3CCOC(c4cnn(C5CC5)c4)C3)cc(-c3ccc(Cl)cc3F)c2nc1C (centres unmarked) tested on hTREM2 (Homo sapiens, UniProt Q9NZC2).
[A] ≥ 7.30

[Q] Lab note: record pEC50 of Cc1cc(C2CN(c3nc(-c4cc(F)c(Cl)cc4F)c4nc(C)c(C)nc4n3)CCO2)ccn1 (centres unmarked) tested on hTREM2 (Homo sapiens, UniProt Q9NZC2).
[A] ≥ 7.30

[Q] Lab note: record pEC50 of COc1cc(C2CN(c3nc(-c4ccc(C(F)(F)F)nc4)c4nc(C)c(C)nc4n3)CCO2)ccn1 (centres unmarked) tested on hTREM2 (Homo sapiens, UniProt Q9NZC2).
[A] ≥ 7.30

[Q] Lab note: record pEC50 of Cc1ccc2c(-c3ccc(F)cc3F)nc([C@H]3C[C@@H](C)O[C@@H](c4cnn(C5CC5)c4)C3)nc2n1 tested on hTREM2 (Homo sapiens, UniProt Q9NZC2).
[A] 6.30 to 7.30

[Q] Lab note: record pEC50 of Cc1cc([C@H]2C[C@H](c3cc4nc(C)c(C)cc4c(-c4ccc(F)cc4F)n3)CCO2)ccn1 (racemic) tested on hTREM2 (Homo sapiens, UniProt Q9NZC2).
[A] ≥ 7.30

[Q] Lab note: record pEC50 of Cc1nc2cc(N3CCO[C@H](c4cnn(C5CC5)c4)C3)nc(-c3ccc(C(F)(F)F)nc3)c2nc1C tested on hTREM2 (Homo sapiens, UniProt Q9NZC2).
[A] 6.30 to 7.30

[Q] Lab note: record pEC50 of Cc1nc2nc([C@H]3CCO[C@@H](c4cnn(C5CC5)c4)C3)nc(-c3ccc(C(F)(F)F)cc3F)c2nc1C tested on hTREM2 (Homo sapiens, UniProt Q9NZC2).
[A] ≥ 7.30

[Q] Lab note: record pEC50 of Cc1cc([C@H]2C[C@@H](c3cc4nc(C)cnc4c(-c4ccc(Cl)cc4F)n3)CCO2)ccn1 (racemic) tested on hTREM2 (Homo sapiens, UniProt Q9NZC2).
[A] 6.30 to 7.30

[Q] Lab note: record pEC50 of Cc1cc([C@H]2C[C@@H](c3cc4nc(C)c(C)cc4c(-c4ccc(Cl)cc4F)n3)CCO2)ccn1 (racemic) tested on hTREM2 (Homo sapiens, UniProt Q9NZC2).
[A] ≥ 7.30

[Q] Lab note: record pEC50 of Cc1nc2nc([C@@H]3CCO[C@@H](c4cnn(C5CC5)c4)C3)nc(C34CC(C(F)(F)F)(C3)C4)c2nc1C (stereo in doubt) tested on hTREM2 (Homo sapiens, UniProt Q9NZC2).
[A] 6.30 to 7.30

* * *

target: UniProtKB Q9NZC2; assay: TREM2 activity by cellular Syk phosphorylation (AlphaScreen/AlphaLISA) in TREM2/DAP12-HEK cells, used for Examples 1-305; assay type: cell-based; parameters: expressed in transfected cells; conditions: HEK293 Cells
pEC50: −log10 of the molar value.
Kindly supply the reported pEC50 values for the records listed here.

[Q] Lab note: record pEC50 of Cc1ccc2c(-c3ccc(Cl)cc3F)nc(N3CCO[C@H](c4cnc(C)nc4)C3)nc2n1 (single isomer, unassigned) tested on UniProtKB Q9NZC2.
[A] 5.52 to 6.30

[Q] Lab note: record pEC50 of Cc1nc2nc([C@@H]3CCO[C@H](c4cnn(C)c4)C3)nc(-c3ccc(Cl)cc3F)c2nc1C (single isomer, unassigned) [Example 177] tested on UniProtKB Q9NZC2.
[A] 5.52 to 6.30

[Q] Lab note: record pEC50 of Cc1cc([C@H]2C[C@H](c3nc(-c4ccc(F)cc4F)c4cc(C)c(C)nc4n3)CCO2)ccn1 (single isomer, unassigned) tested on UniProtKB Q9NZC2.
[A] ≥ 7.30

[Q] Lab note: record pEC50 of Cc1cc2c(-c3ccc(F)cc3F)nc(N3CCO[C@@H](c4cnn(C)c4)C3)nc2nc1C tested on UniProtKB Q9NZC2.
[A] ≥ 7.30

[Q] Lab note: record pEC50 of Cc1nc2nc(N3CCO[C@@H](c4cnn(C)c4)C3)nc([C@H]3C[C@@H](C(F)F)C3)c2nc1C tested on UniProtKB Q9NZC2.
[A] 6.30 to 7.30

[Q] Lab note: record pEC50 of Cc1cc([C@H]2C[C@H](c3nc(-c4ccc(F)cc4F)c4nc(C)c(C)nc4n3)CCO2)ccn1 (single isomer, unassigned) tested on UniProtKB Q9NZC2.
[A] 6.30 to 7.30

[Q] Lab note: record pEC50 of Cc1cc(F)ccc1-c1nc(N2CCO[C@@H](c3cnn(C)c3)C2)nc2nc(C)c(C)nc12 tested on UniProtKB Q9NZC2.
[A] 6.30 to 7.30

[Q] Lab note: record pEC50 of Cc1nc2cc([C@@H]3CCO[C@H](c4cnn(C)c4)C3)nc(-c3ccc(F)cc3F)c2nc1C tested on UniProtKB Q9NZC2.
[A] 5.52 to 6.30

[Q] Lab note: record pEC50 of Cc1cnc2c(-c3ccc(Cl)cc3F)nc([C@H]3CCO[C@@H](c4cnn(C)c4)C3)cc2n1 (single isomer, unassigned) tested on UniProtKB Q9NZC2.
[A] 6.30 to 7.30

[Q] Lab note: record pEC50 of Cc1cnc2c(n1)nc(N1CCO[C@@H](c3cnn(C)c3)C1)nc2[C@H]1C[C@@H](C(F)(F)F)C1 tested on UniProtKB Q9NZC2.
[A] 4.00 to 5.52

[Q] Lab note: record pEC50 of Cc1cc2c(-c3ccc(Cl)cc3F)nc([C@@H]3CCO[C@@H](c4cnn(C)c4)C3)nc2nc1C (single isomer, unassigned) tested on UniProtKB Q9NZC2.
[A] 6.30 to 7.30

[Q] Lab note: record pEC50 of Cc1cc([C@H]2CN(c3nc(-c4ccc(F)cc4F)c4cc(C)c(C)nc4n3)CCO2)ccn1 tested on UniProtKB Q9NZC2.
[A] ≥ 7.30

[Q] Lab note: record pEC50 of Cc1nc2nc(N3CCO[C@@H](c4cnn(C)c4)C3)nc([C@H]3CCC(C)(C)C3)c2nc1C tested on UniProtKB Q9NZC2.
[A] 6.30 to 7.30

[Q] Lab note: record pEC50 of Cc1cc([C@@H]2C[C@H](c3nc(-c4ccc(Cl)cc4F)c4ncc(C)nc4n3)CCO2)ccn1 (single isomer, unassigned) tested on UniProtKB Q9NZC2.
[A] 6.30 to 7.30

[Q] Lab note: record pEC50 of Cc1ccc(-c2nc(N3CCO[C@@H](c4cnn(C)c4)C3)nc3nc(C)c(C)nc23)cn1 tested on UniProtKB Q9NZC2.
[A] 5.52 to 6.30

[Q] Lab note: record pEC50 of Cc1cc([C@@H]2C[C@@H](c3nc(-c4ccc(F)cc4F)c4nc(C)c(C)nc4n3)CCO2)ccn1 (single isomer, unassigned) tested on UniProtKB Q9NZC2.
[A] 5.52 to 6.30

[Q] Lab note: record pEC50 of Cc1nc2cc([C@H]3C[C@@H](C)O[C@@H](c4cnn(C)c4)C3)nc(-c3ccc(Cl)cc3F)c2nc1C (single isomer, unassigned) tested on UniProtKB Q9NZC2.
[A] 6.30 to 7.30

[Q] Lab note: record pEC50 of Cc1cnc2c(-c3ccc(Cl)cc3F)cc([C@H]3CCO[C@@H](c4cnn(C)c4)C3)nc2n1 (single isomer, unassigned) tested on UniProtKB Q9NZC2.
[A] 6.30 to 7.30

[Q] Lab note: record pEC50 of Cc1cnc2c(-c3ccc(Cl)cc3F)nc(N3CCO[C@@H](c4cnn(C)c4)C3)cc2n1 tested on UniProtKB Q9NZC2.
[A] 6.30 to 7.30

[Q] Lab note: record pEC50 of Cc1cnc2cc(N3CCO[C@@H](c4cnn(C)c4)C3)nc(-c3ccc(Cl)cc3F)c2n1 tested on UniProtKB Q9NZC2.
[A] 6.30 to 7.30

[Q] Lab note: record pEC50 of Cc1cnc2c(-c3ccc(Cl)cc3F)nc([C@H]3CCO[C@@H](c4cnc(C)nc4)C3)nc2n1 (single isomer, unassigned) tested on UniProtKB Q9NZC2.
[A] ≥ 7.30

[Q] Lab note: record pEC50 of Cc1nc2nc([C@H]3CCO[C@H](c4cnn(C)c4)C3)cc(-c3ccc(Cl)cc3F)c2nc1C (single isomer, unassigned) tested on UniProtKB Q9NZC2.
[A] 5.52 to 6.30

[Q] Lab note: record pEC50 of Cc1cc([C@@H]2C[C@@H](c3nc(-c4ccc(Cl)cc4F)c4nc(C)c(C)nc4n3)CCO2)ccn1 tested on UniProtKB Q9NZC2.
[A] ≥ 7.30

[Q] Lab note: record pEC50 of Cc1nc2nc(N3CCO[C@@H](c4cnn(C)c4)C3)nc(N3CCCC(F)(F)C3)c2nc1C tested on UniProtKB Q9NZC2.
[A] 4.00 to 5.52

[Q] Lab note: record pEC50 of Cc1ccc2c(n1)nc(N1CCO[C@@H](c3cnn(C)c3)C1)nc2[C@H]1C[C@@H](C(F)(F)F)C1 tested on UniProtKB Q9NZC2.
[A] 4.00 to 5.52

[Q] Lab note: record pEC50 of Cc1ccc(-c2nc([C@@H]3CCO[C@@H](c4ccnc(C)c4)C3)nc3nc(C)c(C)nc23)c(F)c1 tested on UniProtKB Q9NZC2.
[A] 6.30 to 7.30

[Q] Lab note: record pEC50 of Cc1cc2c(OC[C@H]3CC3(C)C)nc(N3CCO[C@@H](c4cnn(C)c4)C3)nc2nc1C tested on UniProtKB Q9NZC2.
[A] 5.52 to 6.30
